Reference source: the supplement of paper PMC10724198

Tested on: Saccharomyces cerevisiae;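 also: PSI is a weighted mean of sequencing reads over stability bins, variants kept only with over 10 reads, mCherry proximal and sfGFP distal, peptide attached via GGGS linker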
protocolSummary: protein stability index of tFT-peptide fusion (C-terminal peptide) (PSI (0-1 scale)); higher = more stable (slower turnover)
reportedConditions: genetic background: wild type; temperature: 30 C
readoutLabel: protein stability index
// no unit string in output, number only

GET /value?item= RRRTARVRTGQV &field=protein stability index returns 0.647

GET /value?item= PHPRHQPNLRPT &field=protein stability index returns 0.664

GET /value?item= SLGPPSLSARTN &field=protein stability index returns 0.626

GET /value?item= LMVGFRSFNVKC &field=protein stability index returns 0.618

GET /value?item= SLPPLPSPPCPP &field=protein stability index returns 0.712

GET /value?item= SVGPWVSSGGFR &field=protein stability index returns 0.666

GET /value?item= LPSPPPPRSLLP &field=protein stability index returns 0.666

GET /value?item= SVHKYGFIKEIN &field=protein stability index returns 0.531

GET /value?item= QQISQIFHKQGK &field=protein stability index returns 0.851

GET /value?item= SSRVLFRVSVLR &field=protein stability index returns 0.646

GET /value?item= GRLSPRRPRLLV &field=protein stability index returns 0.645

GET /value?item= GGGAGRGGVVVR &field=protein stability index returns 0.685

GET /value?item= EKRDEGAGKGEQ &field=protein stability index returns 0.63

GET /value?item= VSGICCRGVLLL &field=protein stability index returns 0.627

GET /value?item= GPRPHVLPLAYF &field=protein stability index returns 0.675

GET /value?item= ERKKKKKERARG &field=protein stability index returns 0.767

GET /value?item= PPLPRPSLPPLP &field=protein stability index returns 0.676

GET /value?item= QTQNEENKKQKY &field=protein stability index returns 0.612

GET /value?item= LLLLSTCSPLLL &field=protein stability index returns 0.618
